# Tested on: A549/ATCC
# test-description: NCI single-dose growth inhibition screen
# Assay type: cell-based
# condition-info: Homo sapiens; Non-Small Cell Lung Cancer A549/ATCC; single dose 10^−5 M
recorded-metric: inhibition at 10 µM (%)

[[record]]
compound_smiles = "Cc1ccc(/C=C2\\SC(=O)N(CCCC(=O)N3CCN(c4cc5c(cc4F)c(=O)c(C(=O)O)cn5C4CC4)CC3)C2=O)cc1"
unit_string = "%"
value_comparator = "<"
result = 0

[[record]]
compound_smiles = "COc1ccc(C=C2SC(=O)N(CCCC(=O)N3CCN(c4cc5c(cc4F)c(=O)c(C(=O)O)cn5C4CC4)CC3)C2=O)cc1"
unit_string = "%"
value_comparator = "="
result = 7.9

[[record]]
compound_smiles = "O=C(O)c1cn(C2CC2)c2cc(N3CCN(C(=O)CCCN4C(=O)SC(=Cc5ccccc5)C4=O)CC3)c(F)cc2c1=O"
unit_string = "%"
value_comparator = "="
result = 14.2

[[record]]
compound_smiles = "O=C(O)c1cn(C2CC2)c2cc(N3CCN(C(=O)CCCN4C(=O)S/C(=C\\c5ccc([N+](=O)[O-])cc5)C4=O)CC3)c(F)cc2c1=O"
unit_string = "%"
value_comparator = "="
result = 5.5


###

# System: A498 renal cancer cell line
# condition-info: read-out: In vitro cytotoxicity (IC50) A498 cell line (µM ± SEM), A498, MTT assay
recorded-metric: IC50 (µM)

[[record]]
molecule = "N.N.[Cl][Pt][Cl] [Cisplatin, reference compound]"
recorded_metric = "IC50"
result = 7.92


###

# System: UO-31
# test-description: NCI single-dose growth inhibition screen
# Type: cell-based, human
# condition-info: Homo sapiens, UO-31, Renal Cancer UO-31; single dose 10^−5 M
recorded-metric: inhibition at 10 µM

[[record]]
compound_smiles = "O=C(O)c1cn(C2CC2)c2cc(N3CCN(C(=O)CCCN4C(=O)S/C(=C\\c5ccc(Cl)cc5)C4=O)CC3)c(F)cc2c1=O"
result = "28%"

[[record]]
compound_smiles = "O=C(O)c1cn(C2CC2)c2cc(N3CCN(C(=O)CCCN4C(=O)SC(=Cc5ccccc5)C4=O)CC3)c(F)cc2c1=O"
result = "53.2%"

[[record]]
compound_smiles = "COc1ccc(C=C2SC(=O)N(CCCC(=O)N3CCN(c4cc5c(cc4F)c(=O)c(C(=O)O)cn5C4CC4)CC3)C2=O)cc1"
result = "18.5%"

[[record]]
compound_smiles = "O=C(O)c1cn(C2CC2)c2cc(N3CCN(C(=O)CCCN4C(=O)S/C(=C\\c5ccc([N+](=O)[O-])cc5)C4=O)CC3)c(F)cc2c1=O"
result = "42%"


###

# System: SNB-75
# test-description: NCI single-dose growth inhibition screen
# Assay type: cell-based, human
# condition-info: Homo sapiens, SNB-75, CNS Cancer SNB-75; single dose 10^−5 M
Would you please tag the item 1 (yes) when its inhibition at 10 µM is 30% or above, and 0 (no) when it is below?

[[record]]
molecule = "O=C(O)c1cn(C2CC2)c2cc(N3CCN(C(=O)CCCN4C(=O)SC(=Cc5cccc([N+](=O)[O-])c5)C4=O)CC3)c(F)cc2c1=O [3d]"
class = "0 (no)"

[[record]]
molecule = "O=C(O)c1cn(C2CC2)c2cc(N3CCN(C(=O)CCCN4C(=O)S/C(=C\\c5ccc(F)cc5)C4=O)CC3)c(F)cc2c1=O [3i]"
class = "0 (no)"

[[record]]
molecule = "COc1ccc(C=C2SC(=O)N(CCCC(=O)N3CCN(c4cc5c(cc4F)c(=O)c(C(=O)O)cn5C4CC4)CC3)C2=O)cc1 [3e]"
class = "0 (no)"

[[record]]
molecule = "COc1cc(/C=C2\\SC(=O)N(CCCC(=O)N3CCN(c4cc5c(cc4F)c(=O)c(C(=O)O)cn5C4CC4)CC3)C2=O)cc(OC)c1OC [3 g]"
class = "0 (no)"

[[record]]
molecule = "O=C(O)c1cn(C2CC2)c2cc(N3CCN(C(=O)CCCN4C(=O)SC(=Cc5cccc6ccccc56)C4=O)CC3)c(F)cc2c1=O [3j]"
class = "0 (no)"

[[record]]
molecule = "O=C(O)c1cn(C2CC2)c2cc(N3CCN(C(=O)CCCN4C(=O)S/C(=C\\c5ccc([N+](=O)[O-])cc5)C4=O)CC3)c(F)cc2c1=O [3k]"
class = "1 (yes)"

[[record]]
molecule = "COc1ccc(/C=C2\\SC(=O)N(CCCC(=O)N3CCN(c4cc5c(cc4F)c(=O)c(C(=O)O)cn5C4CC4)CC3)C2=O)cc1OC [3f]"
class = "0 (no)"

[[record]]
molecule = "O=C(O)c1cn(C2CC2)c2cc(N3CCN(C(=O)CCCN4C(=O)S/C(=C\\c5ccc(Cl)cc5)C4=O)CC3)c(F)cc2c1=O [3 h]"
class = "0 (no)"

[[record]]
molecule = "O=C(O)c1cn(C2CC2)c2cc(N3CCN(C(=O)CCCN4C(=O)CSC4=O)CC3)c(F)cc2c1=O [3 L]"
class = "1 (yes)"


###

# tgt: topoisomerase IIβ (Homo sapiens)
# Construct: purchased
# Sequence (Q02880 whole entry): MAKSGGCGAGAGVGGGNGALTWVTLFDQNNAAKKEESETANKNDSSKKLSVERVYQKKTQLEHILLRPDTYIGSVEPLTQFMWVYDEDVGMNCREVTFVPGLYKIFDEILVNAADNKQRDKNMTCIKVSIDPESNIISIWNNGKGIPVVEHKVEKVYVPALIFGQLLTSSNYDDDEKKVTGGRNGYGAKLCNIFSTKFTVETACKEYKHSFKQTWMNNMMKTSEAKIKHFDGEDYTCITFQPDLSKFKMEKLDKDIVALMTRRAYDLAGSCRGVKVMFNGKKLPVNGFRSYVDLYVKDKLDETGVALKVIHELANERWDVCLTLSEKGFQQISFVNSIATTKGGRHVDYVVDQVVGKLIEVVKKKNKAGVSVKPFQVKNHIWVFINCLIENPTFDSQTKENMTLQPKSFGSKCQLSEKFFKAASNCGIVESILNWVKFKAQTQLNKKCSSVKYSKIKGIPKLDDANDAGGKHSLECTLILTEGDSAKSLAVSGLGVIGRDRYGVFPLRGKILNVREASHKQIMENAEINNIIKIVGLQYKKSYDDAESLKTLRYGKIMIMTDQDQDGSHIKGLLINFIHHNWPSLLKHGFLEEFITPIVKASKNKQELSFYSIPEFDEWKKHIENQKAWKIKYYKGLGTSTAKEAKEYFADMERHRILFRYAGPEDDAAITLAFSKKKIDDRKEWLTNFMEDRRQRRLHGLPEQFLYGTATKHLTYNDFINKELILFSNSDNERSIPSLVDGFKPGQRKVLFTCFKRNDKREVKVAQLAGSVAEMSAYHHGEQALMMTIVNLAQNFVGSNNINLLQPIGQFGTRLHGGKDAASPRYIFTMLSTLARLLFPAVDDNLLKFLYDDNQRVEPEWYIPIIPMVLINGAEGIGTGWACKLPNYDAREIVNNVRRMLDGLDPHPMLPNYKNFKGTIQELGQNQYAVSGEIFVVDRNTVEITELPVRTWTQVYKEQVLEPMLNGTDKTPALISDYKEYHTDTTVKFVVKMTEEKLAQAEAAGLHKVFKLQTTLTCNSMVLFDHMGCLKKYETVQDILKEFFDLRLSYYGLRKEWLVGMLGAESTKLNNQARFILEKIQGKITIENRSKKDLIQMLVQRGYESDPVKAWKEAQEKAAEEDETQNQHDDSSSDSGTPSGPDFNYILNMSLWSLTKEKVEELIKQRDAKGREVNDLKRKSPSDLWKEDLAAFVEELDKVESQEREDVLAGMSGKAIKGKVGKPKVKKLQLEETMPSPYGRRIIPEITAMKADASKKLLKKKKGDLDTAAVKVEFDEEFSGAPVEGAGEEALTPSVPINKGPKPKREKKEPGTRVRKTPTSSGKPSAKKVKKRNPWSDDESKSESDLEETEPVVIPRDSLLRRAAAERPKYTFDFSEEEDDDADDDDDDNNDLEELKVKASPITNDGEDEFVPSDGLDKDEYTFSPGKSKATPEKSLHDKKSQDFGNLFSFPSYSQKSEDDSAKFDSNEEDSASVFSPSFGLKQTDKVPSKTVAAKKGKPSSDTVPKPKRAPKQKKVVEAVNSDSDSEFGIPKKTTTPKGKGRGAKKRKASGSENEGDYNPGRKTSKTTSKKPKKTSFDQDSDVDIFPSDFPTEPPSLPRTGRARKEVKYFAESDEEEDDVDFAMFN
# test-description: Topoisomerase II inhibition, human DNA topoisomerase Elisa kit
# Assay type: biochemical
# condition-info: ± SEM; read-out: Topoisomerase II IC50 µM ± SEM
recorded-metric: IC50 (µM)

[[record]]
molecule = "O=C(O)c1cn(C2CC2)c2cc(N3CCN(C(=O)CCCN4C(=O)CSC4=O)CC3)c(F)cc2c1=O"
tgt = "topoisomerase IIβ (Homo sapiens)"
result = 14.3

[[record]]
molecule = "O=C(O)c1cn(C2CC2)c2cc(N3CCN(C(=O)CCCN4C(=O)S/C(=C\\c5ccc([N+](=O)[O-])cc5)C4=O)CC3)c(F)cc2c1=O"
tgt = "topoisomerase IIβ (Homo sapiens)"
result = 18.7

[[record]]
molecule = "N.N.[Cl][Pt][Cl] [Cisplatin, reference compound]"
tgt = "topoisomerase IIβ (Homo sapiens)"
result = 11.3

[[record]]
molecule = "O=C(O)c1cn(C2CC2)c2cc(N3CCN(C(=O)CCCN4C(=O)SC(=Cc5cccc6ccccc56)C4=O)CC3)c(F)cc2c1=O"
tgt = "topoisomerase IIβ (Homo sapiens)"
result = 39.8

[[record]]
molecule = "O=C(O)c1cn(C2CC2)c2cc(N3CCN(C(=O)CCCN4C(=O)SC(=Cc5ccccc5)C4=O)CC3)c(F)cc2c1=O"
tgt = "topoisomerase IIβ (Homo sapiens)"
result = 35.6

[[record]]
molecule = "O=C(O)c1cn(C2CC2)c2cc(N3CCN(C(=O)CCCN4C(=O)S/C(=C\\c5ccc(F)cc5)C4=O)CC3)c(F)cc2c1=O"
tgt = "topoisomerase IIβ (Homo sapiens)"
result = 15


###

Form field: IC50 (one value per entry).
# tgt: topoisomerase Iα (Homo sapiens, UniProt P11387)
# Construct: purchased
# Sequence (P11387 1-765): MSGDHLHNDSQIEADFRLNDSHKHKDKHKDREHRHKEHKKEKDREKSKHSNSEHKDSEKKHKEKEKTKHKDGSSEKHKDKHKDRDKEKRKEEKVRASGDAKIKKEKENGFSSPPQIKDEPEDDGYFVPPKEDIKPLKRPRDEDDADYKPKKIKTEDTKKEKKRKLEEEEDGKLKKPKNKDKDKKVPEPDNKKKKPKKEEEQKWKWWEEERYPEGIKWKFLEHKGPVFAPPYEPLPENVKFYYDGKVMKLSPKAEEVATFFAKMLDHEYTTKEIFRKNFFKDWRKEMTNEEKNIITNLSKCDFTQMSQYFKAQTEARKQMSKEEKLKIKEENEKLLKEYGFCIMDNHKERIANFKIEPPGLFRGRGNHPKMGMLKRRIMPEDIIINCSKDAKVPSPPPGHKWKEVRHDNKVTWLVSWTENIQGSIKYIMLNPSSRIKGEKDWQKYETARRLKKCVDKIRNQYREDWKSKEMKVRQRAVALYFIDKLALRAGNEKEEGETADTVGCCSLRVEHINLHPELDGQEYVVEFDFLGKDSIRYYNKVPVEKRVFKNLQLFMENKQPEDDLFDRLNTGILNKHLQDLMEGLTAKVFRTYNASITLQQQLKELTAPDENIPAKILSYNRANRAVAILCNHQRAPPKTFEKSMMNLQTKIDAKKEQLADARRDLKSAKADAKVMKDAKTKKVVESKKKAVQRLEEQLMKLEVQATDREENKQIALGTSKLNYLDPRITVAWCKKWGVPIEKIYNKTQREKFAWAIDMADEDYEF
# test-description: Topoisomerase I inhibition, human DNA topoisomerase Elisa kit
# Format: biochemical
# condition-info: ± SEM
# Protocol: Two folds of serial dilution was accomplished after standards and the tested compounds were dissolved in sample diluent. Horseradish peroxidase (HRP-avidin) and biotin-conjugated antibody were diluted 10 times each. Each well received 100 µL of each concentration of the standard or test chemicals, which were then added and incubated at 37 °C for 60 min. […] Finally, stop solution (50 µL) was loaded, and within 5 min, the absorbance at 450 nm was measured spectrophotometrically. […]
recorded-metric: IC50

[[record]]
compound = "N.N.[Cl][Pt][Cl] [Cisplatin, reference compound]"
result = "5.71 µM"

[[record]]
compound = "O=C(O)c1cn(C2CC2)c2cc(N3CCN(C(=O)CCCN4C(=O)SC(=Cc5cccc6ccccc56)C4=O)CC3)c(F)cc2c1=O"
result = "23.5 µM"

[[record]]
compound = "O=C(O)c1cn(C2CC2)c2cc(N3CCN(C(=O)CCCN4C(=O)SC(=Cc5ccccc5)C4=O)CC3)c(F)cc2c1=O"
result = "14.5 µM"

[[record]]
compound = "O=C(O)c1cn(C2CC2)c2cc(N3CCN(C(=O)CCCN4C(=O)CSC4=O)CC3)c(F)cc2c1=O"
result = "18.8 µM"

[[record]]
compound = "O=C(O)c1cn(C2CC2)c2cc(N3CCN(C(=O)CCCN4C(=O)S/C(=C\\c5ccc([N+](=O)[O-])cc5)C4=O)CC3)c(F)cc2c1=O"
result = "36.6 µM"

